# credit: ChEMBL document CHEMBL1201862

# System: OVCAR-5
# test: NCI tumour cell line growth inhibition, 48 h
Calls of active or inactive are those of the source. Cut-off read from the data, not from the text of the source: active = GI50 up to about 1.1 µM and inactive = higher.
Give GI50 for every item shown.

Some compounds with recorded GI50:
compound	tgt	result
Cc1ccc(NC2=NCCO2)c2c1CCC2	OVCAR-5	26 µM (inactive)
CC1(C)O[C@@H]2C[C@H]3[C@@H]4C[C@H](F)C5=CC(=O)C=C[C@]5(C)[C@@]4(F)[C@@H](O)C[C@]3(C)[C@]2(C(=O)CO)O1 [FLUOCINOLONE ACETONIDE]	OVCAR-5	> 100 µM (inactive)
C#CCN(N=O)C(=O)NCCCCC(NC(=O)OCc1ccccc1)C(=O)OCc1ccccc1 (centres undefined)	OVCAR-5	> 100 µM (inactive)

**Query** State the recorded GI50 for this entry: `CC(CCc1nc2ccccc2s1)(c1ccc(O)cc1)c1ccc(O)cc1`
**Result** 18.1 µM (inactive)

---

# System: OVCAR-8
# test: NCI tumour cell line growth inhibition, 48 h
Activity calls are given as the source filed them. No stated cut-off is given here; in the data, active = GI50 up to about 1.1 µM and inactive = higher.
Valid outcomes are listed here; reply with one: YES for active, NO for inactive

Reference set, count: 5
>>> print(df.to_string())
                                   compound      tgt  cat
0   CCSC1=N/C(=C\c2ccco2)C(Nc2ccc(C)cc2)=N1  OVCAR-8   NO
1  S=P(c1ccccc1)(c1ccccc1)C1(C2(P(=S)(c3ccccc3)c3ccccc3)CC2)CC1  OVCAR-8   NO
2  O=C(CCc1ccc(O)c(O)c1)NCCc1cc(O)c(O)c(O)c1  OVCAR-8   NO
3  Cc1ccc(S(=O)(=O)N/N=C2/CC3CCC4CC2CC34)cc1 (stereo not drawn)  OVCAR-8   NO
4  Nc1ccc(C(=O)NN2C(=O)C(Cl)C2c2ccccc2Cl)cc1 (stereo not drawn)  OVCAR-8   NO

**Query** Can you look up the reported call for `Cc1cc(N(CCC#N)CCC#N)ccc1/C=N\c1ccc(C(=O)NN2C(=O)/C(=C/c3ccc(N(CCC#N)CCC#N)cc3)N=C2c2cc([N+](=O)[O-])ccc2Cl)cc1` for me?
**Result** NO

**Query** Note, next up: `Cc1cc(C)c2c(-c3ccccc3)cc(=O)[nH]c2c1`
**Result** NO

---

# Tested on: NCI/ADR-RES
# test: NCI tumour cell line growth inhibition, 48 h
Activity calls are given as the source filed them. Rule as the data show it: active = GI50 up to about 1.1 µM and inactive = higher.
Valid outcomes are listed here; reply with one: active, inactive

Reference set, count: 3
In [3]: df
Out[3]:
                                   molecule       cat
0   O=C(C(Cl)=C(Nc1ccccc1)Nc1ccccc1)C(Cl)Cl  inactive
1  COc1ccc(C2SC(=N)Nc3c2c(C)nn3C(=O)c2ccc(Cl)cc2)cc1 (centres undefined)  inactive
2  COc1cc(NC(C)c2ccc3c(c2)OCCO3)cc(OC)c1OC (centres undefined)  inactive

--- query ---
**Query** Can you look up the reported call for `CC1=NC(=Cc2cc(Br)cc(Br)c2)C(=O)N1n1c(-c2ccccc2)nc2ccccc2c1=O` for me?
**Result** inactive

---

# Test system: DU-145
# test: NCI tumour cell line growth inhibition, 48 h
Activity calls are given as the source filed them. Cut-off read from the data, not from the text of the source: active = GI50 up to about 1.1 µM and inactive = higher.
Valid outcomes are listed here; reply with one: yes (active), no (inactive)

compound	cat
CC12CCCC(O)C1CCC1=CC3(CCC12)SCCS3 (centres undefined)	no

--- query ---
**Query** Can you look up the reported call for CCOC(=O)C(C)(C)Oc1ccc(Cl)cc1 [CLOFIBRATE] for me?
**Result** no
